- assay procedure: soluble on expression in E. coli; label from the status in PepcDB or PDB records
measurement kind: soluble on expression in E. coli

1. MGSDKIHHHHHHMKLVDSIYGTYTVEPVISELIDSAPVQRLKGIHQGGACYIVKPSWNVTRFEHSIGVMLLIRKLGGSLEEQIAGLLHDVSHTAFSHVIDYVLAEEEEDYHEQIYEQVIRASEIPHILDKYGFDLERIVLNHSCWTLLEQPSPSLCADRIDYTLRDLYTYGHINKQEVDDFIANLIVVDGIISTSSVAGAEWFVRAYYKEVIDFFLDPLNVYGSSVLTSVLKSAVERKALGLDDFLKTDEELMEQLQRLNDDSIQKQLATLHPHVNVRENENHYHIHKTNKLRLIDPHVYLDGTFQRISSLSKQVKKWNEEAQRRADRGAYVEVLSS    not soluble
2. EAPLLYGDSSPEIVLVGHGSTYGVIKEIVDIFSKDKKIAMMHFSQIYPFPERDRFDYIEFLKNANLVISVENNATGQFAKLMRAETGFEFARQILKYDGRPFTIEKLKEEIDACL    not soluble
3. MSRESTVREWRTRVPRYRLLGGRCSDCGRSFYPPAKACPYCGSRNVAETELPRVGRLEAYTVLYSVESGARDRSPVVIGLVDLGVAKVVSEIVDVSDPESLERGVQVEAVFRRIYEDGDEGVIVYGVKFRPKA    not soluble
